biological target: mouse Estrogen Receptor alpha (Era), Esr1 (gene 13982); assay: NVS_NR_mERa: NovaScreen (NVS) Nuclear Receptor Binding Assay for mouse Estrogen Receptor alpha (Era) (AID 2283378);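 note: hit means loss of bound radioligand signal relative to DMSO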
Inconclusive results are not listed. Activity calls are given as the source filed them. Rule for the calls: active = hit-call score of the fitted dose curve at least 0.9, where 1 is the maximum; inconclusive = response in the unintended direction; inactive = score below 0.9.
ATTRIBUTE MEASURED: AC50

[[record]]
compound = "C#C[C@]1(O)CC[C@H]2[C@@H]3CCc4cc(OC)ccc4[C@H]3CC[C@@]21C"
target_of_assay = "mouse Estrogen Receptor alpha (Era), Esr1 (gene 13982)"
value_measured = "inactive"

[[record]]
compound = "CC(Cc1ccc(O)c(O)c1)C(C)Cc1ccc(O)c(O)c1 (centres undefined)"
target_of_assay = "mouse Estrogen Receptor alpha (Era), Esr1 (gene 13982)"
value_measured = "1.82 µM (active)"

[[record]]
compound = "C(=C(c1ccccc1)c1ccccc1)c1ccccc1"
target_of_assay = "mouse Estrogen Receptor alpha (Era), Esr1 (gene 13982)"
value_measured = "8.44 µM (active)"

[[record]]
compound = "CCCCC(CC)COP(=O)(O)OCC(CC)CCCC (centres undefined)"
target_of_assay = "mouse Estrogen Receptor alpha (Era), Esr1 (gene 13982)"
value_measured = "inactive"


###

Assay: BSK_3C_uPAR: BioMAP Diversity Plus: 3C Assay for Urokinase-type plasminogen activator receptor (uPAR) Biomarker Activity (AID 2282998)
Details: BioMAP 3C HUVEC, uPAR biomarker ELISA; actives raise or lower the signal
Procedure: BSK_3C is a cell-based, multiplexed-readout assay that uses umbilical vein endothelium, a human vascular primary cell, with measurements taken at 24 hours after chemical dosing in a 96-well plate.BSK_3CAR is an assay component measured in the BSK_3C assay. It measures uPAR antibody related to regulation of gene expression using ELISA technology.Data from the assay component BSK_3CAR was analyzed into 1 assay endpoint. […]
The source made the active and inactive calls. How the source made its calls: active means hit-call score of the fitted dose curve at least 0.9, where 1 is the maximum; inactive means score below 0.9.
API: response.call in Yes for active, No for inactive

Status in this test for FC(F)(F)C(F)(F)C(F)(F)C(F)(F)C(F)(F)C(F)(F)C(F)(F)C(F)(F)F ? No

State the result this test recorded for O=C(O)C(F)(OC(F)(F)C(F)(OC(F)(F)C(F)(OC(F)(F)C(F)(F)C(F)(F)F)C(F)(F)F)C(F)(F)F)C(F)(F)F (configuration not stated) . No

What outcome does the record of this test show for O=C(O)C=C(C(F)(F)F)C(F)(F)F ? No

How was C=C(C)C(=O)OCC(F)(F)C(F)(F)C(F)(F)C(F)(F)C(F)(F)C(F)(F)C(F)(F)F classified in this test? No

Each compound tested received a call. Report the one for C#C[C@]1(O)CC[C@H]2[C@@H]3CCc4cc(OC)ccc4[C@H]3CC[C@@]21C . No

Dear all, I need the recorded test outcome for CCCCCCCCCCCCCCCC[N+](C)(C)Cc1ccccc1 , thank you. Yes

###

experiment: CEETOX_H295R_CORTIC: CeeTox H295R High-throughput Steroidogenesis Assay for Corticosterone (CORTIC) (AID 2283437); conditions: actives raise or lower the signal;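 note: corticosterone secreted into medium quantified by mass spectrometry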
Calls of active or inactive are those of the source. How the source made its calls: active means hit-call score of the fitted dose curve at least 0.9, where 1 is the maximum; inactive means score below 0.9.
Choose one outcome from this list and give only that: active, inactive

[[record]]
molecule = "Nc1ccc(Oc2cccc(Oc3ccc(N)cc3)c2)cc1"
class = "active"

[[record]]
molecule = "CC(=O)Nc1ccc(N=Nc2cc(C)ccc2O)cc1"
class = "active"

[[record]]
molecule = "CC(Cc1ccc(O)c(O)c1)C(C)Cc1ccc(O)c(O)c1 (centres undefined)"
class = "active"


// next entry
In this assay, the call recorded for Cc1cccc(N(C)C)c1 was what? inactive

The origin of these recorded values is PubChem BioAssay (EPA / NIEHS).
